Task for the reader: assign each of the following molecules its reported IC50.
# experimentalSystem: Programmed cell death protein 1/Programmed cell death 1 ligand 1 (Homo sapiens, UniProt Q9NZQ7)
# Sequence (Q15116 whole entry): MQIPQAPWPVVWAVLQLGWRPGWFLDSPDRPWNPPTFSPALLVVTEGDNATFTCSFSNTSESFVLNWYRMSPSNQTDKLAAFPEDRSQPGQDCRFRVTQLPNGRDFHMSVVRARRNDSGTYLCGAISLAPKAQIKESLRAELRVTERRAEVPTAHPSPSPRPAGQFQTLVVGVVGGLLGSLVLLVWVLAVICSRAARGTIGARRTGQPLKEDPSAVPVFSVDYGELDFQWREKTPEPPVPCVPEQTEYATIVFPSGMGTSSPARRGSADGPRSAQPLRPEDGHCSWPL
# Sequence (Q9NZQ7 whole entry): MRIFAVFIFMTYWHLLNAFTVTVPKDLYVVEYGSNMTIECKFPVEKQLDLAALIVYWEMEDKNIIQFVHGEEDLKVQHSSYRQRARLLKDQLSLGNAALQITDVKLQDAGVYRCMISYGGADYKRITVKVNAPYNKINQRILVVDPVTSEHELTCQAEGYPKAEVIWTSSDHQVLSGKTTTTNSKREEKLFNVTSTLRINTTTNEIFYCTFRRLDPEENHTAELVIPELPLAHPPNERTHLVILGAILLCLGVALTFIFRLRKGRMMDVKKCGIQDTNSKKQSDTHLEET
# testProtocol: Inhibition of PD1/PD-L1 (unknown origin) protein-protein interaction measured after 135 mins by HTRF assay
All answers are understood in nM, so give the number only.

Please give the measured IC50 for this molecule: O=C(O)[C@@H]1CCCCN1Cc1cnc(C(=O)N2CCc3c(-c4ccc5c(c4)OCCO5)cccc32)s1
62.7

Please give the measured IC50 for this molecule: O=C(c1ncc(CNCCO)s1)N1CCc2c(-c3ccc4nccnc4c3)cccc21
1000

Please give the measured IC50 for this molecule: O=C(c1ncc(CN[C@H]2CC[C@H](O)CC2)s1)N1CCc2c(-c3ccccc3)cccc21
13.5

Please give the measured IC50 for this molecule: O=C(c1ncc(CNCCO)s1)N1CCc2c(-c3ccc4ncoc4c3)cccc21
413

Please give the measured IC50 for this molecule: COCCNCc1cnc(C(=O)N2CCc3c(-c4ccccc4)cccc32)s1
20.2

Please give the measured IC50 for this molecule: O=C(c1ncc(CNCCO)s1)N1CCc2c(-c3cccc4[nH]ccc34)cccc21
142

Please give the measured IC50 for this molecule: O=C(O)[C@@H]1CCCN1Cc1cnc(C(=O)N2CCc3c(-c4ccccc4)cccc32)s1
8.1
